# TARGET ENTITY: Leucine aminopeptidase (Plasmodium falciparum 3D7)
# Sequence (Q8IL11 whole entry): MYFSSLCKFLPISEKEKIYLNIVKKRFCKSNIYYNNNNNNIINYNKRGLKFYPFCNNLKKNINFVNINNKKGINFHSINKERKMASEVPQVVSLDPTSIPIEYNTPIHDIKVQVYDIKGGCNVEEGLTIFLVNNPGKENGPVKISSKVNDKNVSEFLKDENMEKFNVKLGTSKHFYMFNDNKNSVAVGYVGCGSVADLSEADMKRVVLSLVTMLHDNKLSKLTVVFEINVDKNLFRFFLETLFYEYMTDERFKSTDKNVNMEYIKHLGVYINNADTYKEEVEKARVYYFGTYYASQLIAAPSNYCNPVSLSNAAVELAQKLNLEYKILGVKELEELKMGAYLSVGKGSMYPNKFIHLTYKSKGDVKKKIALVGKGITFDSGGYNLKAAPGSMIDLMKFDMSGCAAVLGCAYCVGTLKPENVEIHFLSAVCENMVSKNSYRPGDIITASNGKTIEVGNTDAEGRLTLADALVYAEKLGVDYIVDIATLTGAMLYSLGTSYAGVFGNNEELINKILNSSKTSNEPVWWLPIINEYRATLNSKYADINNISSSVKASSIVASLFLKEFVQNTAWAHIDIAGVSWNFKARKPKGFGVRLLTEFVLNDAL
# PROTOCOL DESCRIPTION: P. falciparum M17LAP inhibitors, primary screen, biochemical, fluorogenic H-Leu-NHMec substrate, 1536-well (AID 1619)
# Type: functional
Calls of active or inactive are those of the source. No rule for the calls is given here.
Kindly supply the reported IC50 values for the records listed here.

• CC(C)CC1C(C#N)=C(N)Oc2[nH]nc(-c3ccccc3)c21 (centres undefined) = 33.7 µM (active)
• COc1ccccc1NC(=O)CSc1nc(O)cc(=O)[nH]1 = 74.7 µM (active)
• Cc1cccc(NC(=O)CSc2nc3n[nH]cc3c(=O)[nH]2)c1 = 3.88 µM (active)

Recall the reported IC50 of Cc1ccc(NC(S)=NNc2ccc([N+](=O)[O-])cc2S(=O)(=O)Nc2ccccc2C(=O)O)cc1C when tested on Leucine aminopeptidase (Plasmodium falciparum 3D7).
5.16 µM (active)
